These data points were gathered from patent US20200246316A1.

experiment: Dog 28-day repeat dose PO study; assay type: in vivo; details: male, beagle, dog, in vivo, po, 400 mg/kg, Day 1, 400 mg/kg PO, M; read-out: Cmax
Structures can show the parent of a compound that is named as a salt.
REPORTED ENDPOINT: Cmax
Please make sure the unit comes right after the number.

Recorded Cmax for CC1(C)SC(Nc2ccccc2O)=N[C@@H]1C(=O)O [Compound 1, mono-hydrochloride] , please? 128 µg/mL

* * *

assay: Rat 28-day GLP repeat dose PO study (toxicokinetics); format: in vivo; settings: male, rat, in vivo, po, 500 mg/kg, Day 28, M, 500 mg/kg PO; read-out: t1/2 (converted)
Structures can show the parent of a compound that is named as a salt.
REPORTED ENDPOINT: half-life (h)
Give the number; h is assumed, so skip it.

Recorded half-life for CC1(C)SC(Nc2ccccc2O)=N[C@@H]1C(=O)O [Compound 1, mono-hydrochloride] , please? 6.9
